Hello, the source for this data is ChEMBL document CHEMBL2331445, in case you need it.

# Study system: Methionine aminopeptidase 2 (Homo sapiens)
# Cond: at 10 µM
# Description: Inhibition of human MetAP2 expressed in Escherichia coli BL21(lambdaDE3) using Met-AMC as substrate at 10 uM incubated for 30 mins prior to substrate addition measured for 15 mins fluorometric analysis
Activity calls are given as the source filed them. No cut-off for these calls is given here.

Compound smiles	Study system	inhibition
O=[N+]([O-])/C(Br)=C/c1ccc(Br)o1	Methionine aminopeptidase 2 (Homo sapiens)	13%
C[N+](=O)[O-]	Methionine aminopeptidase 2 (Homo sapiens)	inactive
O=Cc1ccc(Br)o1	Methionine aminopeptidase 2 (Homo sapiens)	inactive
C=C1C(=O)O[C@@H]2/C=C(\CO)CC/C=C(\C)C[C@H](OC(=O)C(=C)[C@H](O)CO)[C@@H]12	Methionine aminopeptidase 2 (Homo sapiens)	9%
C[C@@H]1O[C@@H]1P(=O)(O)O	Methionine aminopeptidase 2 (Homo sapiens)	inactive
O=[N+]([O-])CBr	Methionine aminopeptidase 2 (Homo sapiens)	22%
O=[N+]([O-])/C=C/c1ccc(Br)o1	Methionine aminopeptidase 2 (Homo sapiens)	7%

====

# maps each entry to its pIC50
# Tested on: A-431
# Measurement description: Cytotoxicity against human A431 cells after 72 hrs by crystal violet staining method
# Type: ADME, cell-based
# Cond: A-431, 72 h
pIC50: −log10 of the molar value.

Compound smiles	Censoring sign	pIC50
C[C@@H]1O[C@@H]1P(=O)(O)O	≤	4.00
O=[N+]([O-])/C(Br)=C/c1ccc(Br)o1	=	4.62
O=[N+]([O-])/C=C/c1ccc(Br)o1	=	4.92
C[N+](=O)[O-]	≤	4.00
C=C1C(=O)O[C@@H]2/C=C(\CO)CC/C=C(\C)C[C@H](OC(=O)C(=C)[C@H](O)CO)[C@@H]12	=	4.57
O=Cc1ccc(Br)o1	≤	4.00
O=[N+]([O-])CBr	=	4.42

====

# Tested on: Staphylococcus aureus
# Measurement description: microbe, parasite or virus in culture
# Type: functional
# Cond: NCTC 10442
# Description: Antibacterial activity against methicillin-resistant Staphylococcus aureus NCTC 10442 after 20 to 24 hrs by broth microdilution assay
# maps each entry to its MIC
Observation type: MIC

Compound smiles	Observation type	Result value
O=Cc1ccc(Br)o1	MIC	> 32 µg/mL
C[N+](=O)[O-]	MIC	> 32 µg/mL
C=C1C(=O)O[C@@H]2/C=C(\CO)CC/C=C(\C)C[C@H](OC(=O)C(=C)[C@H](O)CO)[C@@H]12	MIC	> 32 µg/mL

====

# System: Calu-6
# Measurement description: Cytotoxicity against human Calu6 cells after 72 hrs by crystal violet staining method
# Type: ADME, cell-based
# Cond: Calu-6, 72 h
pIC50: −log10 of the molar value.
# maps each entry to its pIC50

Compound smiles	pIC50
C[N+](=O)[O-]	≤ 4.00
O=Cc1ccc(Br)o1	≤ 4.00
C[C@@H]1O[C@@H]1P(=O)(O)O	≤ 4.00
